Item-by-item account of GI50
Test system: UACC-62
runDescription: NCI tumour cell line growth inhibition, 48 h
Active and inactive are the calls of the source. No stated cut-off is given here; in the data, active = GI50 up to about 1.1 µM and inactive = higher. Residues, ends and D or L forms follow the SMILES beside them.
attributeMeasured: GI50

{"columns": ["molecule", "experimentalValue"],
 "data": [
  ["N#Cc1c(-c2ccccc2)cn(C(=O)c2ccccc2)c1N", "> 100 µM (inactive)"],
  ["Cc1nc2c(nc1C)-c1c(c3c(n1C)C(=O)CCC3)C(=O)C2=O", "0.406 µM (active)"],
  ["Cc1c2ccnc(C(N)=O)c2c(C)c2c1[nH]c1ccccc12", "4.92 µM (inactive)"],
  ["CN(C)Cc1cc(C(=O)/C=C/c2ccc([N+](=O)[O-])cc2)cc(CN(C)C)c1O", "13.9 µM (inactive)"],
  ["Cn1c2ccccc2c2ccc3c(c21)C(=O)c1ccc2c4ccccc4n(C)c2c1C3=O", "> 100 µM (inactive)"],
  ["CCOC(=O)CSc1c(C(=O)OCC)c(=O)n(-c2ccccc2)c(=S)n1-c1ccccc1", "36.3 µM (inactive)"],
  ["O=c1[nH]c(=O)n(C2CC(O)C(CO)O2)cc1OCc1ccccc1 (centres undefined)", "> 100 µM (inactive)"],
  ["COc1ccc(/C=C2\\N=C(c3ccccc3)N(Nc3nnc(NN4C(=O)/C(=C/c5ccc(OC)cc5)N=C4c4ccccc4)c4ccccc34)C2=O)cc1", "70.5 µM (inactive)"],
  ["COC(CNC(=O)CNC(=O)c1ccc(C(F)(F)F)cc1)OC", "> 100 µM (inactive)"],
  ["COc1ccc(C2COc3cc(O)c(O)cc3C2)cc1 (centres undefined)", "14.1 µM (inactive)"],
  ["CC1(C)CCc2c(ccc(C(=O)/C=C/c3ccc(O)cc3)c2O)O1", "10 µM (inactive)"],
  ["CCOC(=O)c1cc2c(=Cc3ccc(N(C)C)cc3)c3ccccc3n2[n+]1C", "1.33 µM (inactive)"],
  ["COc1ccc(NC(=O)CC(=O)N/N=C(\\C)c2cc3ccccc3oc2=O)cc1", "> 100 µM (inactive)"],
  ["COc1cc(/C=C2\\N=C(c3ccccc3)N(c3nc4c(OC)ccc(OC)c4s3)C2=O)ccc1O", "33 µM (inactive)"],
  ["COc1cc(C(=O)C/C(CCC(=O)Nc2ccc(Cl)cc2Cl)=N/NC(=O)C(=O)NN)ccc1O", "53.8 µM (inactive)"],
  ["C=CCc1cccc2cc(C(=O)Nc3ccccc3)c(=N)oc12", "41.1 µM (inactive)"],
  ["CCN(CC)CCCC(C)Nc1cc(-c2ccccc2)nc2cc(OC)ccc12 (centres undefined)", "17.6 µM (inactive)"],
  ["CCC/C(Cl)=N\\OC(=O)Nc1ccc(F)c([N+](=O)[O-])c1", "18.7 µM (inactive)"],
  ["c1ccc(CSC(SCc2ccccc2)c2cccc3ccccc23)cc1", "> 10 µM (inactive)"],
  ["CC(=O)NC(CO)C(=O)NC(Cc1ccc(O)cc1)C(=O)NCC(N)=O (stereo not drawn) (Ac-Ser-Tyr-Gly-NH2; configuration not given here)", "> 100 µM (inactive)"],
  ["CCCC1(NC(=O)C(F)(F)F)CC(OC)OC2COC(c3ccccc3)OC21 (centres undefined)", "55.7 µM (inactive)"],
  ["N#Cc1ccc(Sc2nc3ccccc3[nH]2)cc1", "41.7 µM (inactive)"],
  ["CCCNCC(O)CNc1ccc(NCC(O)CNCCC)c2c1C(=O)c1ccccc1C2=O (centres undefined)", "1.9 µM (inactive)"],
  ["C[C@H]1[C@H]2[C@H](C[C@@]3(C)C4=CC[C@H]5C(C)(C)[C@@H](OC6OCC(O)C(O)C6O)CC[C@@]56C[C@@]46CC[C@]23C)O[C@@]2(O)[C@@H]1OC(C)(C)[C@H]2O (some centres undefined)", "1.61 µM (inactive)"],
  ["N=C(CC(=O)Nc1ccccn1)c1ccccc1", "> 100 µM (inactive)"],
  ["O=C1NC(=O)C(c2c[nH]c3ccccc23)=C1c1cn(C(c2ccccc2)(c2ccccc2)c2ccccc2)cn1", "12.5 µM (inactive)"],
  ["CCCCCCCCCCCCCC(=O)CBr", "9.79 µM (inactive)"],
  ["CC(C)OP(=O)(OC(C)C)C(C)(C)O", "> 100 µM (inactive)"],
  ["COc1ccccc1NC(=O)/C(=C/c1ccccc1)C(C)=O", "32.9 µM (inactive)"],
  ["Cc1nc2sccn2c1C(=O)NN", "> 100 µM (inactive)"],
  ["Cc1nc2ccccc2c(=O)n1NC(=O)Cc1ccccc1", "43.5 µM (inactive)"],
  ["C[C@H](c1ccccc1)N1C(=O)[C@@H](OCc2ccccc2)[C@H]1[C@H](COC(=O)COCc1ccccc1)OCc1ccccc1", "> 100 µM (inactive)"],
  ["O=C(NC12CC3CC(CC(C3)C1)C2)n1cnc2c(Cl)ncnc21", "81.1 µM (inactive)"],
  ["CN(C)CCS/C(=N\\c1ccccc1)n1cccc1", "82.8 µM (inactive)"]
]}
